# target or system: UniProt:P28845
# protocol: biochemical
# experimental parameters: read-out: % Inh @ 0.1 mM
Overview of recorded inhibition for various molecules
value type: inhibition (%)

>>> recorded_measurement("CCc1cccc(NS(=O)(=O)N2CCCCCCC2)n1 [Example 193]")
92.5
>>> recorded_measurement("COc1cc2c(nn1)CCN(S(=O)(=O)Nc1ccc3ccccc3n1)CC2 [Example 170]")
21.2
>>> recorded_measurement("CCOC(=O)N1CCN(S(=O)(=O)Nc2cccc(CC)n2)CC1 [Example 196]")
85.8
>>> recorded_measurement("CCc1cccc(NS(=O)(=O)N2CCC(c3ccc(C(=O)NC4CC4)cc3)CC2)n1 [Example 78]")
64.2
>>> recorded_measurement("CCc1cccc(NS(=O)(=O)N2CCCC(C)C2)n1 (centres unmarked) [Example 118]")
73.6

* * *

Overview of recorded inhibition at 0.1 µM for various compounds
# target or system: 11β-hsd-1 enzyme (Homo sapiens)
# Sequence (P28845 whole entry, species assumed): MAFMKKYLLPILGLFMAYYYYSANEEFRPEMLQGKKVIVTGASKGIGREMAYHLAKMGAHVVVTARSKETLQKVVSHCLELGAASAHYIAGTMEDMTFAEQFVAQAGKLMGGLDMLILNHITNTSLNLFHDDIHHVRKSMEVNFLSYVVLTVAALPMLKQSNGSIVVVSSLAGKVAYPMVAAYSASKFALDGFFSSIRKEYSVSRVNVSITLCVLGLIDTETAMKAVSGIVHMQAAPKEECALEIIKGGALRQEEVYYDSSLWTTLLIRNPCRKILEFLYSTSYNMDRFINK
# protocol: biochemical
# experimental parameters: read-out: % Inh @ 0.1 μM
# Description: Percentage of inhibition was determined in a 100 mM Triethanolamine buffer, pH 8.0, 200 mM NaCl, 0.02% n-dodecyl β-D-maltoside and 5 mM β-ME. […] Percent Inhibition was calculated based on the following equation: (1-(3H-Cortisol peak area in the […] of inhibitor)×100).
value type: inhibition at 0.1 µM

>>> recorded_measurement("Cc1cc(Cl)cnc1N1CCN(S(=O)(=O)Nc2ccc3ncccc3n2)CC1")
"80%"
>>> recorded_measurement("C[C@H]1CN(S(=O)(=O)Nc2cccc(CO)n2)CCN1c1ccc(C#N)cn1")
"100%"
>>> recorded_measurement("CCc1cccc(NS(=O)(=O)N2CCCN(c3ccc(C#N)cn3)CC2)n1")
"89%"
>>> recorded_measurement("Cc1cccc(NS(=O)(=O)N2CCOCC2c2ccc(F)cc2)n1 (stereo not drawn)")
"10.6%"
>>> recorded_measurement("N#Cc1ccc(N2CCCN(S(=O)(=O)Nc3ccc4ccccc4n3)CC2)nc1")
"73%"
>>> recorded_measurement("CCOC(=O)Cc1cccc(NS(=O)(=O)N2CCc3ccccc3CC2)n1")
"100%"
>>> recorded_measurement("N#Cc1ccc(N2CCN(S(=O)(=O)Nc3ccc4ccccc4n3)CC2)nc1")
"94.9%"
>>> recorded_measurement("CCc1cccc(NS(=O)(=O)N2CCN(C3CCCCC3)CC2)n1")
"0%"
>>> recorded_measurement("Cc1cccc(NS(=O)(=O)N2C[C@H]3C[C@@H]2CN3c2ccc(C#N)cn2)n1")
"0%"
>>> recorded_measurement("C[C@@H]1CN(S(=O)(=O)Nc2cccc(CO)n2)CCN1c1ccc(C#N)cn1")
"100%"
>>> recorded_measurement("Cc1cc(C)nc(NS(=O)(=O)N2CCN(c3ccc(C(F)(F)F)cn3)CC2)c1")
"95.9%"
>>> recorded_measurement("Cc1cccc(NS(=O)(=O)N2CCN(c3ccc(C#N)cn3)[C@H](C)C2)n1")
"100%"
>>> recorded_measurement("Cc1cc(N)nc(NS(=O)(=O)N2CCn3c(nc4cc(Cl)ccc43)C2)c1")
"100%"
>>> recorded_measurement("Cc1cccc(NS(=O)(=O)N2CCN(Cc3ccccc3)CC2)n1")
"17.7%"
>>> recorded_measurement("Cc1cc(N)nc(NS(=O)(=O)N2CCn3c(-c4ccccc4)cnc3C2)c1")
"100%"
>>> recorded_measurement("CCc1cccc(NS(=O)(=O)N2CCN(C(C)C)CC2)n1")
"0%"
>>> recorded_measurement("Cc1ccnc(N2CCN(S(=O)(=O)Nc3cccc(C)n3)CC2)c1")
"56.2%"
>>> recorded_measurement("CCc1cccc(NS(=O)(=O)N2CCCN(c3ccc(C(F)(F)F)cn3)CC2)n1")
"93%"

Numbers sourced from patent US20070027118A1.
